This collection of values is drawn from ChEMBL document CHEMBL5512642.

tested on: K562; test: Cytotoxicity against human K562 cells assessed as reduction in cell viability incubated for 72 hrs by MTS assay; assay type: functional, cell-based; conditions: K562, 72 h
pIC50: −log10 of the molar value.
Here the recorded pIC50 is given for each entry.
measured.attribute: pIC50

[[record]]
compound = "C=C(C)[C@@H]1CC[C@]2(C(=O)O)CC[C@]3(C)[C@H](CC[C@@H]4[C@@]5(C)Cc6c(C(F)(F)F)cc(C(=O)OC)c(C(=O)OC)c6C(C)(C)[C@@H]5CC[C@]43C)[C@@H]12"
qualifying_sign = "="
number = 4.74

[[record]]
compound = "CC(C)[C@@H]1CC[C@]2(C(=O)O)CC[C@]3(C)[C@H](CC[C@@H]4[C@@]5(C)CC(C(=O)C(F)(F)F)C(=O)C(C)(C)[C@@H]5CC[C@]43C)[C@@H]12 (stereo not given in full)"
qualifying_sign = "="
number = 4.54

[[record]]
compound = "C[C@H]1[C@H](C)CC[C@]2(C(=O)O)CC[C@]3(C)C(=CC[C@@H]4[C@@]5(C)Cc6c(C(F)(F)F)cc(=O)oc6C(C)(C)[C@@H]5CC[C@]43C)[C@H]12"
qualifying_sign = "="
number = 4.64

[[record]]
compound = "CC(C)[C@@H]1CC[C@]2(C(=O)O)CC[C@]3(C)[C@H](CC[C@@H]4[C@@]5(C)Cc6c(C(F)(F)F)cc7c(c6C(C)(C)[C@@H]5CC[C@]43C)C(=O)N(c3ccccc3)C7=O)[C@@H]12"
qualifying_sign = "<"
number = 4.30

[[record]]
compound = "C=C(C)[C@@H]1CC[C@]2(C(=O)O)CC[C@]3(C)[C@H](CC[C@@H]4[C@@]5(C)Cc6c(C(F)(F)F)cc(=O)oc6C(C)(C)[C@@H]5CC[C@]43C)[C@@H]12"
qualifying_sign = "="
number = 4.66


----------
tested on: CEM-DNR; assay: Cytotoxicity against human CEM-DNR cells assessed as reduction in cell viability incubated for 72 hrs by MTS assay; format: functional, cell-based
pIC50: −log10 of the molar value.
measured.attribute: pIC50

[[record]]
molecule = "C[C@H]1[C@H](C)CC[C@]2(C(=O)O)CC[C@]3(C)C(=CC[C@@H]4[C@@]5(C)CC6=C(C7C(=O)N(c8ccccc8)C(=O)C7C=C6C(F)(F)F)C(C)(C)[C@@H]5CC[C@]43C)[C@H]12 (some centres not stated)"
assayed_system = "CEM-DNR"
result = "< 4.30"

[[record]]
molecule = "C=C(C)[C@@H]1CC[C@]2(C(=O)O)CC[C@]3(C)[C@H](CC[C@@H]4[C@@]5(C)Cc6c(C(F)(F)F)cc7c(c6C(C)(C)[C@@H]5CC[C@]43C)C(=O)N(c3ccccc3)C7=O)[C@@H]12"
assayed_system = "CEM-DNR"
result = "< 4.30"

[[record]]
molecule = "C=C(C)[C@@H]1CC[C@]2(C(=O)O)CC[C@]3(C)[C@H](CC[C@@H]4[C@@]5(C)CC6=C(C7C(=O)N(c8ccccc8)C(=O)C7C=C6C(F)(F)F)C(C)(C)[C@@H]5CC[C@]43C)[C@@H]12 (some centres not stated)"
assayed_system = "CEM-DNR"
result = 4.70

[[record]]
molecule = "C[C@H]1[C@H](C)CC[C@]2(C(=O)O)CC[C@]3(C)C(=CC[C@@H]4[C@@]5(C)Cc6c(C(F)(F)F)cc7c(c6C(C)(C)[C@@H]5CC[C@]43C)C(=O)N(c3ccccc3)C7=O)[C@H]12"
assayed_system = "CEM-DNR"
result = "< 4.30"

[[record]]
molecule = "C=C(C)[C@@H]1CC[C@]2(C(=O)O)CC[C@]3(C)[C@H](CC[C@@H]4[C@@]5(C)Cc6c(C(F)(F)F)cc(C(=O)OC)c(C(=O)OC)c6C(C)(C)[C@@H]5CC[C@]43C)[C@@H]12"
assayed_system = "CEM-DNR"
result = "< 4.30"

[[record]]
molecule = "CC(C)[C@@H]1CC[C@]2(C(=O)O)CC[C@]3(C)[C@H](CC[C@@H]4[C@@]5(C)CC6=C(C7C(=O)N(c8ccccc8)C(=O)C7C=C6C(F)(F)F)C(C)(C)[C@@H]5CC[C@]43C)[C@@H]12 (some centres not stated)"
assayed_system = "CEM-DNR"
result = "< 4.30"

[[record]]
molecule = "C[C@H]1[C@H](C)CC[C@]2(C(=O)O)CC[C@]3(C)C(=CC[C@@H]4[C@@]5(C)Cc6c(C(F)(F)F)cc(=O)oc6C(C)(C)[C@@H]5CC[C@]43C)[C@H]12"
assayed_system = "CEM-DNR"
result = 4.71

[[record]]
molecule = "C=C(C)[C@@H]1CC[C@]2(C(=O)O)CC[C@]3(C)[C@H](CC[C@@H]4[C@@]5(C)Cc6c(C(F)(F)F)cc(=O)oc6C(C)(C)[C@@H]5CC[C@]43C)[C@@H]12"
assayed_system = "CEM-DNR"
result = 5.11

[[record]]
molecule = "CC(C)[C@@H]1CC[C@]2(C(=O)O)CC[C@]3(C)[C@H](CC[C@@H]4[C@@]5(C)Cc6c(C(F)(F)F)cc(=O)oc6C(C)(C)[C@@H]5CC[C@]43C)[C@@H]12"
assayed_system = "CEM-DNR"
result = 5.31

[[record]]
molecule = "CC(C)[C@@H]1CC[C@]2(C(=O)O)CC[C@]3(C)[C@H](CC[C@@H]4[C@@]5(C)Cc6c(C(F)(F)F)cc7c(c6C(C)(C)[C@@H]5CC[C@]43C)C(=O)N(c3ccccc3)C7=O)[C@@H]12"
assayed_system = "CEM-DNR"
result = "< 4.30"

[[record]]
molecule = "COC(=O)c1cc(C(F)(F)F)c2c(c1C(=O)OC)C(C)(C)[C@@H]1CC[C@]3(C)[C@H](CC[C@@H]4[C@H]5[C@H](C(C)C)CC[C@]5(C(=O)O)CC[C@]43C)[C@@]1(C)C2"
assayed_system = "CEM-DNR"
result = "< 4.30"

[[record]]
molecule = "COC(=O)c1cc(C(F)(F)F)c2c(c1C(=O)OC)C(C)(C)[C@@H]1CC[C@]3(C)[C@H](CC=C4[C@@H]5[C@@H](C)[C@H](C)CC[C@]5(C(=O)O)CC[C@]43C)[C@@]1(C)C2"
assayed_system = "CEM-DNR"
result = "< 4.30"


----------
assay: Metabolic stability in human liver microsomes assessed as compound remaining at measured at 30 mins in presence of NADPH by RF-MS analysis; format: ADME, Microsome; conditions: read-out: Stability
measured.attribute: remaining at 0.5 h (%)

[[record]]
compound = "C[C@H]1[C@H](C)CC[C@]2(C(=O)O)CC[C@]3(C)C(=CC[C@@H]4[C@@]5(C)CC6=C(C7C(=O)N(c8ccccc8)C(=O)C7C=C6C(F)(F)F)C(C)(C)[C@@H]5CC[C@]43C)[C@H]12 (some centres undefined)"
unit_annotation = "%"
number = 64

[[record]]
compound = "CC(C)[C@@H]1CC[C@]2(C(=O)O)CC[C@]3(C)[C@H](CC[C@@H]4[C@@]5(C)CC6=C(C7C(=O)N(c8ccccc8)C(=O)C7C=C6C(F)(F)F)C(C)(C)[C@@H]5CC[C@]43C)[C@@H]12 (some centres undefined)"
unit_annotation = "%"
number = 92

[[record]]
compound = "C=C(C)[C@@H]1CC[C@]2(C(=O)O)CC[C@]3(C)[C@H](CC[C@@H]4[C@@]5(C)Cc6c(C(F)(F)F)cc(C(=O)OC)c(C(=O)OC)c6C(C)(C)[C@@H]5CC[C@]43C)[C@@H]12"
unit_annotation = "%"
number = 102

[[record]]
compound = "C=C(C)[C@@H]1CC[C@]2(C(=O)O)CC[C@]3(C)[C@H](CC[C@@H]4[C@@]5(C)Cc6c(C(F)(F)F)cc(=O)oc6C(C)(C)[C@@H]5CC[C@]43C)[C@@H]12"
unit_annotation = "%"
number = 86


----------
test: Apparent permeability of the compound in MDCK-MDR1 cells at 10 uM incubated for 1 hr by RF-MS analysis; format: ADME, cell-based, Canis lupus familiaris; conditions: dog
Param threshold (0.3 ×10⁻⁶ cm/s) applies to Papp at 1 h, 10 µM; output Condition met when value >= threshold, Condition not met when value < threshold.

[[record]]
molecule = "CC(C)[C@@H]1CC[C@]2(C(=O)O)CC[C@]3(C)[C@H](CC[C@@H]4[C@@]5(C)Cc6c(C(F)(F)F)cc(=O)oc6C(C)(C)[C@@H]5CC[C@]43C)[C@@H]12"
class_label = "Condition not met"

[[record]]
molecule = "C=C(C)[C@@H]1CC[C@]2(C(=O)O)CC[C@]3(C)[C@H](CC[C@@H]4[C@@]5(C)CC6=C(C7C(=O)N(c8ccccc8)C(=O)C7C=C6C(F)(F)F)C(C)(C)[C@@H]5CC[C@]43C)[C@@H]12 (stereo partly specified)"
class_label = "Condition not met"

[[record]]
molecule = "C=C(C)[C@@H]1CC[C@]2(C(=O)O)CC[C@]3(C)[C@H](CC[C@@H]4[C@@]5(C)Cc6c(C(F)(F)F)cc(=O)oc6C(C)(C)[C@@H]5CC[C@]43C)[C@@H]12"
class_label = "Condition not met"

[[record]]
molecule = "C=C(C)[C@@H]1CC[C@]2(C(=O)O)CC[C@]3(C)[C@H](CC[C@@H]4[C@@]5(C)Cc6c(C(F)(F)F)cc(C(=O)OC)c(C(=O)OC)c6C(C)(C)[C@@H]5CC[C@]43C)[C@@H]12"
class_label = "Condition met"

[[record]]
molecule = "CC(C)[C@@H]1CC[C@]2(C(=O)O)CC[C@]3(C)[C@H](CC[C@@H]4[C@@]5(C)CC6=C(C7C(=O)N(c8ccccc8)C(=O)C7C=C6C(F)(F)F)C(C)(C)[C@@H]5CC[C@]43C)[C@@H]12 (stereo partly specified)"
class_label = "Condition not met"

[[record]]
molecule = "C[C@H]1[C@H](C)CC[C@]2(C(=O)O)CC[C@]3(C)C(=CC[C@@H]4[C@@]5(C)CC6=C(C7C(=O)N(c8ccccc8)C(=O)C7C=C6C(F)(F)F)C(C)(C)[C@@H]5CC[C@]43C)[C@H]12 (stereo partly specified)"
class_label = "Condition met"

